Please go through the items and note down their Euclidean distance.
Tested on: OVCAR4
Assay: Euclidean distance of Cell Painting phenotypic profile (signed KS, 77 features) to DMSO centroid (dimensionless distance); 5 or 10 uM (library dependent); higher = stronger phenotypic change vs DMSO (phenoactivity)
Conditions: 48 h
Structures can show the parent of a compound that is named as a salt.
Answers are plain numbers.

{"columns": ["MOLECULE", "RESULT_TYPE", "RESULT_NUMBER"],
 "data": [
  ["CN1CC2c3ccccc3Oc3ccc(Cl)cc3C2C1 (stereo not drawn) [Asenapine maleate]", "Euclidean distance", 1.51],
  ["O=C(c1cn(Cc2cncn2Cc2ccc(Br)cc2)cc1-c1cccc2ccccc12)N1CCOCC1", "Euclidean distance", 1.92],
  ["C[S+]([O-])c1ccc(-c2nc(-c3ccc(F)cc3)c(-c3ccncc3)[nH]2)cc1 (stereo not drawn)", "Euclidean distance", 1.33],
  ["COc1ccc2cc3[n+](cc2c1OC)CCc1cc2c(cc1-3)OCO2 [Berberine HCl]", "Euclidean distance", 0.946],
  ["CCc1nc(N)nc(N)c1-c1ccc(Cl)cc1", "Euclidean distance", 2.25]
]}

Dear colleague, could you send me Euclidean distance for each of the items below? Thanks.
1. Nc1ccn([C@@H]2CS[C@H](CO)O2)c(=O)n1
2. CCN[C@@H]1C[C@H](N)[C@@H](O[C@H]2OC(CN)=CC[C@H]2N)[C@H](O)[C@H]1O[C@H]1OC[C@](C)(O)[C@H](NC)[C@H]1O [Netilmicin Sulfate]
3. O=C(CCCN1CC=C(n2c(=O)[nH]c3ccccc32)CC1)c1ccc(F)cc1
4. O=C(O)C(Cc1c[nH]c2ccccc12)N1C(=O)c2ccccc2C1=O (stereo not drawn)
5. CCCCNc1ccc(C(=O)OCCN(C)C)cc1 [Tetracaine HCl]
6. C=CC(=O)Nc1cccc(Nc2nc(Nc3ccc(Oc4ccnc(C(=O)NC)c4)cc3)ncc2F)c1
7. O=NN(CCCl)C(=O)NC1CCCCC1
8. C[C@@H]1CC(=O)NN=C1c1ccc(NN=C(C#N)C#N)cc1

Solution:
[0.623, 0.916, 0.73, 0.641, 1.79, 1.63, 1, 0.625]

Dear colleague, could you send me Euclidean distance for each of the items below? Thanks.
1. C=CC[N+]1([C@H]2C[C@H]3[C@@H]4CC[C@H]5C[C@H](O)[C@@H](N6CCOCC6)C[C@]5(C)[C@H]4CC[C@]3(C)[C@H]2OC(C)=O)CCCC1 [Rocuronium Bromide]
2. CN1CCN(C2CCN(C(=O)Nc3cc(Oc4ccc(NC(=O)C5(C(=O)Nc6ccc(F)cc6)CC5)c(F)c4)ccn3)CC2)CC1 [Golvatinib (E7050)]
3. CC(C)(S)[C@@H](N)C(=O)O
4. Nc1nc(F)nc2c1ncn2[C@@H]1O[C@H](CO)[C@@H](O)[C@@H]1O
5. Nc1nc2c(ncn2COCCO)c(=O)[nH]1

Solution:
[1.25, 1.45, 1.22, 1.63, 1.37]
